- TGT: Glycogen Phosphorylase (rabbit muscle) (Oryctolagus cuniculus, UniProt P00489)
- Construct: Enzyme (rabbit muscle) was purchased from Sigma
- Sequence (P00489 2-843 limits assumed): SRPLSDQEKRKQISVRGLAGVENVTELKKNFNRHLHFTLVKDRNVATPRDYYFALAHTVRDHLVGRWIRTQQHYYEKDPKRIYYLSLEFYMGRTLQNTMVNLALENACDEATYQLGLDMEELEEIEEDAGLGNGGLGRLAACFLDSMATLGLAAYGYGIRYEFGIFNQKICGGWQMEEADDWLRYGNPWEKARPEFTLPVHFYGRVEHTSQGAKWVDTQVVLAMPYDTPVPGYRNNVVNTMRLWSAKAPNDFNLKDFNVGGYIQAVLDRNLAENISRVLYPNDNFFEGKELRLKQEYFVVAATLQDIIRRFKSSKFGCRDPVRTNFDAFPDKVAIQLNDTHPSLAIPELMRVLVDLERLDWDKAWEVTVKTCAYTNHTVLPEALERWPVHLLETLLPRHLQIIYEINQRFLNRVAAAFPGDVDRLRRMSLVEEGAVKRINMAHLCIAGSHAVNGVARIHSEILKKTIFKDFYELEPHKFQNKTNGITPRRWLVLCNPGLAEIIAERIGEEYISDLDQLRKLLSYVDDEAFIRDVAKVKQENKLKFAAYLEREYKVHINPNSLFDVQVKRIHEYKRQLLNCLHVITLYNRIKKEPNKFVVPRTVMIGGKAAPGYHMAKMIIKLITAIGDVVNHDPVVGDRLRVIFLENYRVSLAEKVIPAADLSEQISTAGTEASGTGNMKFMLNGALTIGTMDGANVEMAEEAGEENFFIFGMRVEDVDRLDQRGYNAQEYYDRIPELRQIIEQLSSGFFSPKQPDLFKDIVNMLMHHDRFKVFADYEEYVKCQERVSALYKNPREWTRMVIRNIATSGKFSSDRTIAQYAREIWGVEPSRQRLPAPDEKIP
- METHOD_SUMMARY: Glycogen phosphorylase selectivity assay
- TEST_SETTINGS: Table 3 Selectivity; read-out: Glycogen Phosphorylase (act.)
pEC50: −log10 of the molar value.
A collection of compounds and their measured pEC50

> print(dat)
                            molecule.smiles  value.kind  endpoint.value
1  Nc1c(F)ccc2c1nc(-c1ccc(P(=O)(O)O)o1)n2CC1CC1       pEC50          < 4.00
2  CCc1cc(F)c(N)c2nc(-c3ccc(P(=O)(O)O)o3)n(CC(C)C)c12       pEC50          < 3.30

Give its pEC50 value. Item: `CCn1c(-c2ccc(P(=O)(O)O)o2)nc2c(N)cccc21`
< 3.70

---

A collection of compounds and their measured melting point

Sample answers from the record:
> print(dat)
                                   compound        endpoint.value
1  CC(C)Cn1c(-c2ccc(P(=O)(O)O)o2)nc2c(N)c(F)cc(CCCCBr)c21 [Compound 12.82]  200 to 220 °C (dec.)
2  COc1cccc(-n2c(-c3ccc(P(=O)(O)O)o3)nc3ccc(Cl)cc32)c1 [Compound 13.65]         184 to 185 °C
3  CC(C)Cn1c(-c2ccc(P(=O)(O)O)o2)nc2c(N)c(O)ccc21 [Compound 11.1]         206 to 209 °C

Give its melting point value. Item: CC(C)Cn1c(-c2ccc(P(=O)(O)O)o2)nc2c(F)c(F)c(F)cc21 [Compound 12.78]
155 to 158 °C

Give its melting point value. Item: O=P(O)(O)c1ccc(-c2nc3cc(Cl)c(Cl)cc3n2CC2CC2)o1 [Compound 13.45]
180 to 210 °C

Give its melting point value. Item: CC(C)Cn1c(-c2ccc(P(=O)(O)O)o2)nc2cc(F)c(N)c(Br)c21 [Compound 13.69]
208 to 211 °C

---

- Test system: rat hepatocytes
- METHOD_SUMMARY: Inhibition of gluconeogenesis in rat hepatocytes
- Type: cell-based
- TEST_SETTINGS: Hepatocyte; glucose production from lactate/pyruvate, isolated rat hepatocytes, 1 hour
- Experimental: Hepatocytes were prepared from overnight fasted Sprague-Dawley rats (250-300 g) according to the procedure of Berry and Friend (Berry, M. N., Friend, D. S., 1969, J. Cell. Biol. 43, 506-520) as modified by Groen (Groen, A. K., Sips, H. J., Vervoorn, R. C., Tager, J. M., 1982, Eur. J. Biochem. 122, 87-93). Hepatocytes (75 mg wet weight/mL) were incubated in 1 ml Krebs-bicarbonate buffer containing 10 mM Lactate, 1 mM pyruvate, 1 mg/mL BSA, and test compound concentrations from 1 to 500 μM. […]
VALUE_KIND: pIC50
To interpret pIC50, take it as minus log10 of a concentration measured in moles per litre.

Sample answers from the record:
> print(dat)
                            molecule.smiles              tgt  value.kind  endpoint.value
1   CCn1c(-c2ccc(P(=O)(O)O)o2)nc2c(N)cccc21  rat hepatocytes       pIC50            3.96
2  CC(C)Cn1c(COCP(=O)(O)O)nc2c(N)c(F)cc(Br)c21  rat hepatocytes       pIC50            4.80

Proceed to the following item.
Give its pIC50 value. Item: `CC(C)Cn1c(-c2ccc(P(=O)(O)O)o2)nc2c(N)c(Cl)cc(Cl)c21`
4.77

---

A collection of compounds and their measured melting point
Structures can show the parent of a compound that is named as a salt.

> print(dat)
                                   compound        endpoint.value
1  CC(C)Cn1c(-c2ccc(P(=O)(O)O)o2)nc2cc(Cl)ccc21 [Compound 13.16]                238 °C
2  Cc1c(Br)cc2c(nc(-c3ccc(P(=O)(O)O)o3)n2CC(C)C)c1C [Compound 13.53]         205 to 209 °C
3  CCC(CC)n1c(-c2ccc(P(=O)(O)O)o2)nc2c(N)c(F)ccc21 [Compound 12.76]  180 to 185 °C (dec.)
4  CCC(CC)Cn1c(-c2ccc(P(=O)(O)O)o2)nc2c(N)c(F)ccc21 [Compound 12.73]  178 to 182 °C (dec.)

Give its melting point value. Item: COC(=O)c1cccc(Cn2c(-c3ccc(P(=O)(O)O)o3)nc3c(N)cccc32)c1 [Compound 12.6]
198 to 202 °C

Give its melting point value. Item: CC(C)Cn1c(-c2ccc(P(=O)(O)O)o2)nc2c(Cl)cc(Cl)cc21 [Compound 13.39]
155 to 175 °C

Give its melting point value. Item: CC(C)Cn1c(-c2ccc(P(=O)(O)O)o2)nc2c(O)cccc21 [Compound 13.21]
244 to 245 °C

Give its melting point value. Item: O=C(O)c1ccccc1-n1c(-c2ccc(P(=O)(O)O)o2)nc2cc(Cl)ccc21 [Compound 13.13]
220 to 224 °C

Give its melting point value. Item: CC(C)Cn1c(-c2ccc(P(=O)(O)O)o2)nc2c(N)c(F)ccc21 [Compound 12.53]
230 to 235 °C

Give its melting point value. Item: CC(C)Cn1c(-c2ccc(P(=O)(O)O)o2)nc2c(N)c(F)cc(CCCN(C)C)c21 (as salt: hydrobromid) [Compound 12.84, hydrobromide salt]
208 to 212 °C (dec.)

Give its melting point value. Item: CC(=O)Nc1c(F)cc2nc(-c3ccc(P(=O)(O)O)o3)n(CC(C)C)c2c1Br [Compound 13.76]
217 to 221 °C (dec.)

Give its melting point value. Item: Cc1cc(C)c2c(c1)nc(-c1ccc(P(=O)(O)O)o1)n2CC(C)C (hydrate or solvate) [Compound 13.87]
196 to 200 °C

Give its melting point value. Item: CC(C)Cn1c(-c2ccc(P(=O)(O)O)o2)nc2ccc(F)cc21 [Compound 13.27]
202 to 205 °C

Give its melting point value. Item: O=P(O)(O)c1ccc(-c2nc3ccccc3n2-c2ccccc2)o1 [Compound 13.12]
196 to 200 °C

Give its melting point value. Item: CC(C)n1c(-c2ccc(P(=O)(O)O)o2)nc2cc(Cl)ccc21 [Compound 13.33]
192 to 195 °C

Give its melting point value. Item: CCc1ccc2c(nc(-c3ccc(P(=O)(O)O)o3)n2CC(C)C)c1N [Compound 12.52]
220 to 225 °C

---

A collection of compounds and their measured melting point

> print(dat)
                                   compound     value.kind        endpoint.value
1   CCn1c(-c2ccc(P(=O)(O)O)o2)nc2c(N)cccc21  melting point              > 250 °C
2  CC(C)Cn1c(-c2ccc(P(=O)(O)O)o2)nc2c(N)c(F)cc(C3CC3)c21  melting point  250 to 255 °C (dec.)
3  Cc1cc(C)c2nc(-c3ccc(P(=O)(O)O)o3)n(CC(C)C)c2c1 (hydrate or solvate)  melting point         209 to 212 °C
4  CC(C)Cn1c(-c2ccc(P(=O)(O)O)o2)nc2c(N)c(F)cc(Cl)c21  melting point         220 to 225 °C
5  Cc1c(C)c(C)c2c(nc(-c3ccc(P(=O)(O)O)o3)n2CC2CC2)c1C (hydrate or solvate)  melting point         207 to 208 °C
6       O=P(O)(O)c1ccc(-c2nc3ccccc3[nH]2)o1  melting point              > 250 °C

Give its melting point value. Item: `Cc1cccc2c1nc(-c1ccc(P(=O)(O)O)o1)n2CC(C)C`
208 to 211 °C
